# Tested on: PC-3 prostate
# experiment: NCI tumour cell line growth inhibition, 48 h
property.label: TGI

1. O=c1cc(-c2ccccc2)[nH]c2ccc(N3CCOCC3)cc12 = > 100 µM
2. COc1cc(C(O)CCBr)c(OC)cc1C (stereo not given) = > 73 µM
3. CCOC(=O)c1c(C)nc2c(c1N)CC(=O)N2Cc1ccc(OC)cc1 = > 100 µM
4. CN(C)c1ccc(/C=C/C(=O)CC(=O)/C=C/c2ccc(N(C)C)cc2)cc1 = > 100 µM
5. CN1CCc2c3n(c4cc(Br)ccc24)[C@H](O)CCCC31 (stereo not given in full) = > 10 µM

* * *

# System: HOP-92 NSCLC
# experiment: NCI tumour cell line growth inhibition, 48 h
property.label: TGI

1. Cc1ccc2c(c1)C(=O)N(N(C)C)CC(=O)N2 = > 100 µM
2. CC(CC[C@@H](O)C(C)(C)O)C1[C@@H](O)CC2(C)C3CC(O)C4C(C)(C)[C@@H](OC5OC(CO)C(O)C(O)C5O)CC[C@@]45C[C@@]35CC[C@]12C (stereo not given in full) = > 10 µM
3. CC1(C)CC(C2=NCCO2)CC(C)(C)N1 = > 100 µM
4. Cc1cc(CC(=O)NCCO)n(CCO)c(=O)c1 = > 100 µM
5. CCCc1cc(=O)oc2c3c(c4c(c12)OC(C)(C)CC4)O[C@@H](C)[C@H](C)[C@H]3O = 26.5 µM

* * *

List of GI50 values.
# Tested on: HOP-62 NSCLC
# experiment: NCI tumour cell line growth inhibition, 48 h
property.label: GI50

1. O=C1C(Cl)=C(Nc2cccc(Cl)c2)C(=O)N1Cc1ccc(Cl)cc1 = 1.53 µM
2. O=C(c1ccccc1)c1ccccc1-c1ccccc1 = 5.38 µM
3. CC(=O)NC1C(OC[C@@H](CC(=O)N[C@@H](CC(=O)O)CC(=O)N[C@H](CC(=O)N[C@@H](CCCN)CC(=O)N[C@@H](CCCN)CC(=O)N[C@H](CC(N)=O)C(C)C)C(C)C)NC(=O)C[C@@H](N)C(C)C)OC(CO)C(O)C1O (stereo not given in full) = > 100 µM
4. COc1cc(/C=C\c2cc(OC)c(OC)c(OC)c2)cc(NC(=O)/C=C/c2cc(OC)c(OC)c(OC)c2)c1OC = 7.21 µM
5. CCOC(=O)c1c(C)nc2c(c1N)CC(=O)N2Cc1ccc(OC)cc1 = 2.1 µM

* * *

# System: K-562 leukemia
# experiment: NCI tumour cell line growth inhibition, 48 h
property.label: TGI

1. CCOC(=O)C12CCCC1(O)N(NC(=O)OC(C)(C)C)C(C)=C2C(=O)OC (stereo not drawn) = > 100 µM
2. O=C(COc1ccc(Cl)cc1)N1N=C(c2ccc(Cl)cc2)CC1(O)c1ccccc1 (stereo not drawn) = > 42.7 µM
3. NC(=O)Nc1ccc(S(=O)(=O)Nc2ccc(S(N)(=O)=O)cc2)cc1 = > 100 µM

* * *

# System: RPMI-8226 leukemia
# experiment: NCI tumour cell line growth inhibition, 48 h
Measured TGI accompanies every entry in the list below.
property.label: TGI (µM)

1) Cc1ccc([N+](=O)[O-])cc1S(=O)(=O)Nc1ccc(C2=NOC(c3ccco3)C2)cc1 (stereo not given) = 96.8
2) C[C@]12C[C@H](CCCCCCNCCOC(=O)NCCCc3ccc(N(CCCl)CCCl)cc3)C3=C4CCC(=O)C=C4CCC3C1CC[C@@H]2O (stereo not given in full) = 1.06

* * *

Attribute: TGI
# Test system: HOP-62 NSCLC
# experiment: NCI tumour cell line growth inhibition, 48 h
Where a SMILES comes first, the peptide text is derived from it. [ ]: non-standard residue; d: D form. pGlu = O=C1CC[CH](C(=O)O)N1
property.label: TGI

1) CC1CCC2(O)C3(C)CC4(O)OC2(C1O)C1(O)C3(O)C(OC(=O)c2ccc[nH]2)C(O)(C(C)C)C41C (stereo not given) = > 100 µM
2) CCN(C(=O)N[C@@H](Cc1ccccc1)C(=O)N[C@@H](CC(C)C)C(=O)OC)c1ccccc1 = 70.6 µM
3) C/C(N=NS(=O)(=O)c1ccccc1)=C1\C=CC=CN1O = > 100 µM
4) Cc1cc2c(cc1Cl)SC(NNC(=O)c1ccco1)=NS2(=O)=O = > 10 µM
5) O=[N+]([O-])C(=C(Nc1ccccc1)Nc1ccccc1)/C(Cl)=C(\Cl)[N+](=O)[O-] = 26.4 µM
6) CSC(=Nc1nnc(-c2ccc([N+](=O)[O-])cc2)s1)SC = 53.3 µM
7) CC1(C)CC(C2=NCCO2)CC(C)(C)N1 = > 100 µM
8) CN1CCc2c3n(c4cc(Br)ccc24)[C@H](O)CCCC31 (stereo not given in full) = > 10 µM
9) O=C(O)CCCSC(=O)Nc1ccc(N=Nc2ccccc2)cc1 = > 100 µM
10) CC(C)(C)[Si](C)(C)OCC1OC(n2cnc3c(N)ncnc32)CC1O (stereo not given) = > 100 µM
11) COc1ccc(C23C(=O)c4ccccc4N2O[C@H]2C(=O)N(c4ccccc4)C(=O)[C@H]23)cc1 (stereo not given in full) = > 100 µM
12) CCN(Cc1cc(Nc2nc(C)cn3c(-c4cn[nH]c4)cnc23)sn1)C(C)(C)CO = 0.688 µM
13) CCOC(=O)c1c(C)nc2c(c1N)CC(=O)N2Cc1ccc(OC)cc1 = 5.97 µM
14) CCCc1cc(=O)oc2c3c(c4c(c12)OC(C)(C)CC4)O[C@@H](C)[C@H](C)[C@H]3O = 33.4 µM
15) Cc1cc(-c2cccc3ccccc23)c(C#N)c(=S)n1C1OC(CO)C(O)C(O)C1O (stereo not given) = > 100 µM
16) ClCc1cccc2c(CCl)cccc12 = 10.2 µM
17) O=C(Nc1ccc([As](=O)(O)O)cc1)Nc1cccc(Cl)c1Cl = > 100 µM
18) CC(=O)NC1C(OC[C@@H](CC(=O)N[C@@H](CC(=O)O)CC(=O)N[C@H](CC(=O)N[C@@H](CCCN)CC(=O)N[C@@H](CCCN)CC(=O)N[C@H](CC(N)=O)C(C)C)C(C)C)NC(=O)C[C@@H](N)C(C)C)OC(CO)C(O)C1O (stereo not given in full) = > 100 µM
19) CCNC(=O)C1CCCN1C(=O)C(CCCN=C(N)N)NC(=O)C(CC(C)C)NC(=O)C(CC(C)C)NC(=O)C(Cc1ccc(O)cc1)NC(=O)C(CO)NC(=O)C(Cc1c[nH]c2ccccc12)NC(=O)C(Cc1cnc[nH]1)NC(=O)C1CCC(=O)N1 (stereo not given) ([pGlu]HWSYLLRP-NHEt; configuration not given here) = > 100 µM
20) N#CC(C#N)=C1c2ccccc2C(=NN)c2ccccc21 = > 100 µM
21) O=C(O)CN(CC(=O)O)Cc1cc(C#Cc2ccc(C#Cc3ccccc3)cc2)cc(CN(CC(=O)O)CC(=O)O)n1 = 71 µM
22) COc1ccc2[nH]cc(-c3ccc(-c4c[nH]c5ccc(OC)cc45)s3)c2c1 = 10.5 µM
23) CC(=O)OC/C=C/[C@H](O[Si](C)(C)C(C)(C)C)[C@@H](O)/C=C/COC(C)=O = > 100 µM
24) CCN(CC)c1c(C(=O)/C=C/c2ccc(Cl)cc2)c(-c2ccccc2)nn(C)c1=O = 4.26 µM
25) CC1=C(C(=O)Nc2cc(=O)n(C)c(=O)n2C)C(c2ccco2)C(C(=O)Nc2cc(=O)n(C)c(=O)n2C)=C(C)N1 = > 100 µM
26) N#C[C@@H](c1nc2ccccc2s1)c1ncccc1[N+](=O)[O-] = > 57.6 µM
27) C[C@]12CC[C@@H]3c4ccc(O)cc4CC[C@H]3[C@@H]1CC[C@@H]2OP(=O)(O)O = > 100 µM
28) N.N.N.N.[Co+3].[N-]=[N+]=[N-].[N-]=[N+]=[N-].[N-]=[N+]=[N-] = > 100 µM
29) CC(=O)OCC1=C(C(=O)O)N2C(=O)C(NC(=O)CSc3ccncc3)C2SC1 (stereo not given) = > 100 µM
30) CC1OC(OC2C(O)COC(OC3C(C)OC(OC4C(OC(=O)[C@]56CCC(C)(C)C[C@@H]5C5=CCC7[C@@]8(C)C[C@H](O)[C@H](OC9OC(CO)C(O)C(OC%10OC(CO)C(O)C(O)C%10O)C9O)[C@@](C)(CO)[C@@H]8CC[C@@]7(C)[C@]5(C)CC6)OCC(O)C4O)C(O)C3OC3OCC(O)(CO)C3O)C2O)C(O)C(O)C1O (stereo not given in full) = 20.7 µM

* * *

# System: 786-0 renal
# experiment: NCI tumour cell line growth inhibition, 48 h; in the data active means GI50 below about 0.43 µM; inactive means the rest
Labels: t (active), f (inactive)

1. Oc1c(-c2nnc(-c3ccccc3Cl)o2)sc2nnc(-c3ccccc3)c(-c3ccccc3)c12 = f
2. O=C(c1ccccc1)c1ccccc1-c1ccccc1 = f
3. C=C(CN1C(=O)CN(C)C1=O)c1ccc(C(=O)Nc2ccccc2N)cc1 = f
4. CCN(Cc1cc(Nc2nc(C)cn3c(-c4cn[nH]c4)cnc23)sn1)C(C)(C)CO = t
